- Test system: CYP3A
- method_description: clinical
- condition_parameters: human, in vivo, po, 10 mg, MRT GLS mean, prednisolone 10 mg alone, Day -2
readout_label: MRT (h)
API: value field is a number in h; no unit string.

Ask | Reported MRT, molecule C[C@]12C=CC(=O)C=C1CC[C@@H]1[C@@H]2[C@@H](O)C[C@@]2(C)[C@H]1CC[C@]2(O)C(=O)CO : ____
Reply | 4.26

* * *

- Test system: CYP3A
- method_description: clinical
- condition_parameters: human, in vivo, po, 10 mg, AUC0–last GLS mean, prednisolone 10 mg alone, Day -2
readout_label: AUC(0-t)
Hi, when you answer, please include the unit after the number. Thanks!

Ask | Need AUC(0-t), item C[C@]12C=CC(=O)C=C1CC[C@@H]1[C@@H]2[C@@H](O)C[C@@]2(C)[C@H]1CC[C@]2(O)C(=O)CO
Reply | 1040 ng·h/mL

* * *

- Tested on: CYP3A
- method_description: clinical
- condition_parameters: human, in vivo, po, 10 mg, λz GLS mean, prednisolone 10 mg alone, Day -2
readout_label: k el (s⁻¹)
Record the value in s⁻¹, omitting the unit from your answer.

Ask | What value of k el has been recorded for this entry: C[C@]12C=CC(=O)C=C1CC[C@@H]1[C@@H]2[C@@H](O)C[C@@]2(C)[C@H]1CC[C@]2(O)C(=O)CO
Reply | 7.56e-05

* * *

- System: CYP3A
- method_description: clinical
- condition_parameters: human, in vivo, po, 10 mg, Cmax GLS mean, prednisolone 10 mg alone, Day -2
readout_label: Cmax
Express the reported value numerically, then name its unit.

Ask | // returns reported Cmax for input C[C@]12C=CC(=O)C=C1CC[C@@H]1[C@@H]2[C@@H](O)C[C@@]2(C)[C@H]1CC[C@]2(O)C(=O)CO
Reply | 0.243 µg/mL

* * *

- System: CYP3A
- method_description: clinical
- condition_parameters: human, in vivo, po, 2 mg, MRT GLS mean, midazolam 2 mg alone, Day -2
readout_label: MRT (h)
API: value field is a number in h; no unit string.

Ask | Form: Entry = Cc1ncc2n1-c1ccc(Cl)cc1C(c1ccccc1F)=NC2 [Midazolam] | System = CYP3A | MRT = ____
Reply | 3.18

* * *

- Tested on: CYP3A
- method_description: clinical
- condition_parameters: human, in vivo, po, 2 mg, Cmax GLS mean, midazolam 2 mg alone, Day -2
readout_label: Cmax (ng/mL)
Numbers only here, please. The scale is ng/mL.

Ask | # query: Cmax of entry Cc1ncc2n1-c1ccc(Cl)cc1C(c1ccccc1F)=NC2
Reply | 12.6

* * *

- Test system: CYP3A
- method_description: clinical
- condition_parameters: human, in vivo, po, 2 mg, AUC0–inf GLS mean, midazolam 2 mg alone, Day -2
readout_label: AUC(0-inf) (ng·h/mL)
Report only the number, with the unit ng·h/mL understood.

Ask | Entry Cc1ncc2n1-c1ccc(Cl)cc1C(c1ccccc1F)=NC2 [Midazolam] has what AUC(0-inf)?
Reply | 24.1

* * *

- Test system: CYP3A
- method_description: clinical
- condition_parameters: human, in vivo, po, 2 mg, t1/2,z GLS mean, midazolam 2 mg alone, Day -2
readout_label: half-life (h)
A number alone suffices; assume h.

Ask | Param readout= half-life; system= CYP3A; entry= Cc1ncc2n1-c1ccc(Cl)cc1C(c1ccccc1F)=NC2 ; returns value.
Reply | 3.24

* * *

- System: CYP3A
- method_description: clinical
- condition_parameters: human, in vivo, po, 10 mg, AUC0–inf GLS mean, prednisolone 10 mg alone, Day -2
readout_label: AUC(0-inf) (ng·h/mL)
Write the answer as a number in ng·h/mL, unit excluded.

Ask | Request the reported AUC(0-inf) associated with C[C@]12C=CC(=O)C=C1CC[C@@H]1[C@@H]2[C@@H](O)C[C@@]2(C)[C@H]1CC[C@]2(O)C(=O)CO
Reply | 1090

* * *

- Test system: CYP3A
- method_description: clinical
- condition_parameters: human, in vivo, po, 10 mg, t1/2,z GLS mean, prednisolone 10 mg, 10th day after the last ensitrelvir dose, Day 14
readout_label: half-life (h)
Numeric answer only, unit h assumed.

Ask | Request the reported half-life associated with C[C@]12C=CC(=O)C=C1CC[C@@H]1[C@@H]2[C@@H](O)C[C@@]2(C)[C@H]1CC[C@]2(O)C(=O)CO
Reply | 2.67
